system: OCT3 (Homo sapiens, UniProt O75751)
Construct: expressed in transfected cells; host or cells: HEK293
Sequence (O75751 whole entry): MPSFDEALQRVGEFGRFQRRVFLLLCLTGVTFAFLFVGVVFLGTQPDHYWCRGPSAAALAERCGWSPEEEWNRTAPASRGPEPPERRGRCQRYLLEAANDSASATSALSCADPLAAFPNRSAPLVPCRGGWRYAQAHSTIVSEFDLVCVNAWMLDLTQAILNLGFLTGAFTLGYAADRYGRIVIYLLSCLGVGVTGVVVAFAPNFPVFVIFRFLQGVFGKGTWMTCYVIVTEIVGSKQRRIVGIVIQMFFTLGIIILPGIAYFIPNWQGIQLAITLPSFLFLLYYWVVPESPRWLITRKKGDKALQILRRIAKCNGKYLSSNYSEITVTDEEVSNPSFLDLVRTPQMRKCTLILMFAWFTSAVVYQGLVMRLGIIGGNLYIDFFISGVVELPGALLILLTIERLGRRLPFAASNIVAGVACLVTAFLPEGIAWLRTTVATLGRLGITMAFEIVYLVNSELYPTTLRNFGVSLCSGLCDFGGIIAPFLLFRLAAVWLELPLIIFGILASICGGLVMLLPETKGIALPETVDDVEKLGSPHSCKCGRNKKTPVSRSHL
protocolDetails: Inhibition of model substrate uptake in OCT3-overexpressing HEK293 cells
Assay type: cell-based
endpoint: (S)-Zolmitriptan inhibition [%]
Respond using a number only.

input: Give a short answer stating reported (S)-Zolmitriptan inhibition [%] for Cc1ccc(O)c([C@@H](CCN(C(C)C)C(C)C)c2ccccc2)c1 [(S)-Tolterodine] .
output: 82.9

input: Give a short answer stating reported (S)-Zolmitriptan inhibition [%] for CNCC[C@H](Oc1ccc(C(F)(F)F)cc1)c1ccccc1 [(S)-Fluoxetine] .
output: 13.8

input: Give a short answer stating reported (S)-Zolmitriptan inhibition [%] for CC(C)C[C@H](N(C)C)C1(c2ccc(Cl)cc2)CCC1 [(S)-Sibutramine] .
output: 24.1

input: Give a short answer stating reported (S)-Zolmitriptan inhibition [%] for C1CCN2C[C@@H]3C[C@@H](CN4CCCC[C@@H]34)[C@H]2C1 [(-)-Sparteine] .
output: 11.0
